Value source: ChEMBL document CHEMBL1141870

Target: DNA-dependent protein kinase catalytic subunit (Homo sapiens)
Sequence (P78527 whole entry): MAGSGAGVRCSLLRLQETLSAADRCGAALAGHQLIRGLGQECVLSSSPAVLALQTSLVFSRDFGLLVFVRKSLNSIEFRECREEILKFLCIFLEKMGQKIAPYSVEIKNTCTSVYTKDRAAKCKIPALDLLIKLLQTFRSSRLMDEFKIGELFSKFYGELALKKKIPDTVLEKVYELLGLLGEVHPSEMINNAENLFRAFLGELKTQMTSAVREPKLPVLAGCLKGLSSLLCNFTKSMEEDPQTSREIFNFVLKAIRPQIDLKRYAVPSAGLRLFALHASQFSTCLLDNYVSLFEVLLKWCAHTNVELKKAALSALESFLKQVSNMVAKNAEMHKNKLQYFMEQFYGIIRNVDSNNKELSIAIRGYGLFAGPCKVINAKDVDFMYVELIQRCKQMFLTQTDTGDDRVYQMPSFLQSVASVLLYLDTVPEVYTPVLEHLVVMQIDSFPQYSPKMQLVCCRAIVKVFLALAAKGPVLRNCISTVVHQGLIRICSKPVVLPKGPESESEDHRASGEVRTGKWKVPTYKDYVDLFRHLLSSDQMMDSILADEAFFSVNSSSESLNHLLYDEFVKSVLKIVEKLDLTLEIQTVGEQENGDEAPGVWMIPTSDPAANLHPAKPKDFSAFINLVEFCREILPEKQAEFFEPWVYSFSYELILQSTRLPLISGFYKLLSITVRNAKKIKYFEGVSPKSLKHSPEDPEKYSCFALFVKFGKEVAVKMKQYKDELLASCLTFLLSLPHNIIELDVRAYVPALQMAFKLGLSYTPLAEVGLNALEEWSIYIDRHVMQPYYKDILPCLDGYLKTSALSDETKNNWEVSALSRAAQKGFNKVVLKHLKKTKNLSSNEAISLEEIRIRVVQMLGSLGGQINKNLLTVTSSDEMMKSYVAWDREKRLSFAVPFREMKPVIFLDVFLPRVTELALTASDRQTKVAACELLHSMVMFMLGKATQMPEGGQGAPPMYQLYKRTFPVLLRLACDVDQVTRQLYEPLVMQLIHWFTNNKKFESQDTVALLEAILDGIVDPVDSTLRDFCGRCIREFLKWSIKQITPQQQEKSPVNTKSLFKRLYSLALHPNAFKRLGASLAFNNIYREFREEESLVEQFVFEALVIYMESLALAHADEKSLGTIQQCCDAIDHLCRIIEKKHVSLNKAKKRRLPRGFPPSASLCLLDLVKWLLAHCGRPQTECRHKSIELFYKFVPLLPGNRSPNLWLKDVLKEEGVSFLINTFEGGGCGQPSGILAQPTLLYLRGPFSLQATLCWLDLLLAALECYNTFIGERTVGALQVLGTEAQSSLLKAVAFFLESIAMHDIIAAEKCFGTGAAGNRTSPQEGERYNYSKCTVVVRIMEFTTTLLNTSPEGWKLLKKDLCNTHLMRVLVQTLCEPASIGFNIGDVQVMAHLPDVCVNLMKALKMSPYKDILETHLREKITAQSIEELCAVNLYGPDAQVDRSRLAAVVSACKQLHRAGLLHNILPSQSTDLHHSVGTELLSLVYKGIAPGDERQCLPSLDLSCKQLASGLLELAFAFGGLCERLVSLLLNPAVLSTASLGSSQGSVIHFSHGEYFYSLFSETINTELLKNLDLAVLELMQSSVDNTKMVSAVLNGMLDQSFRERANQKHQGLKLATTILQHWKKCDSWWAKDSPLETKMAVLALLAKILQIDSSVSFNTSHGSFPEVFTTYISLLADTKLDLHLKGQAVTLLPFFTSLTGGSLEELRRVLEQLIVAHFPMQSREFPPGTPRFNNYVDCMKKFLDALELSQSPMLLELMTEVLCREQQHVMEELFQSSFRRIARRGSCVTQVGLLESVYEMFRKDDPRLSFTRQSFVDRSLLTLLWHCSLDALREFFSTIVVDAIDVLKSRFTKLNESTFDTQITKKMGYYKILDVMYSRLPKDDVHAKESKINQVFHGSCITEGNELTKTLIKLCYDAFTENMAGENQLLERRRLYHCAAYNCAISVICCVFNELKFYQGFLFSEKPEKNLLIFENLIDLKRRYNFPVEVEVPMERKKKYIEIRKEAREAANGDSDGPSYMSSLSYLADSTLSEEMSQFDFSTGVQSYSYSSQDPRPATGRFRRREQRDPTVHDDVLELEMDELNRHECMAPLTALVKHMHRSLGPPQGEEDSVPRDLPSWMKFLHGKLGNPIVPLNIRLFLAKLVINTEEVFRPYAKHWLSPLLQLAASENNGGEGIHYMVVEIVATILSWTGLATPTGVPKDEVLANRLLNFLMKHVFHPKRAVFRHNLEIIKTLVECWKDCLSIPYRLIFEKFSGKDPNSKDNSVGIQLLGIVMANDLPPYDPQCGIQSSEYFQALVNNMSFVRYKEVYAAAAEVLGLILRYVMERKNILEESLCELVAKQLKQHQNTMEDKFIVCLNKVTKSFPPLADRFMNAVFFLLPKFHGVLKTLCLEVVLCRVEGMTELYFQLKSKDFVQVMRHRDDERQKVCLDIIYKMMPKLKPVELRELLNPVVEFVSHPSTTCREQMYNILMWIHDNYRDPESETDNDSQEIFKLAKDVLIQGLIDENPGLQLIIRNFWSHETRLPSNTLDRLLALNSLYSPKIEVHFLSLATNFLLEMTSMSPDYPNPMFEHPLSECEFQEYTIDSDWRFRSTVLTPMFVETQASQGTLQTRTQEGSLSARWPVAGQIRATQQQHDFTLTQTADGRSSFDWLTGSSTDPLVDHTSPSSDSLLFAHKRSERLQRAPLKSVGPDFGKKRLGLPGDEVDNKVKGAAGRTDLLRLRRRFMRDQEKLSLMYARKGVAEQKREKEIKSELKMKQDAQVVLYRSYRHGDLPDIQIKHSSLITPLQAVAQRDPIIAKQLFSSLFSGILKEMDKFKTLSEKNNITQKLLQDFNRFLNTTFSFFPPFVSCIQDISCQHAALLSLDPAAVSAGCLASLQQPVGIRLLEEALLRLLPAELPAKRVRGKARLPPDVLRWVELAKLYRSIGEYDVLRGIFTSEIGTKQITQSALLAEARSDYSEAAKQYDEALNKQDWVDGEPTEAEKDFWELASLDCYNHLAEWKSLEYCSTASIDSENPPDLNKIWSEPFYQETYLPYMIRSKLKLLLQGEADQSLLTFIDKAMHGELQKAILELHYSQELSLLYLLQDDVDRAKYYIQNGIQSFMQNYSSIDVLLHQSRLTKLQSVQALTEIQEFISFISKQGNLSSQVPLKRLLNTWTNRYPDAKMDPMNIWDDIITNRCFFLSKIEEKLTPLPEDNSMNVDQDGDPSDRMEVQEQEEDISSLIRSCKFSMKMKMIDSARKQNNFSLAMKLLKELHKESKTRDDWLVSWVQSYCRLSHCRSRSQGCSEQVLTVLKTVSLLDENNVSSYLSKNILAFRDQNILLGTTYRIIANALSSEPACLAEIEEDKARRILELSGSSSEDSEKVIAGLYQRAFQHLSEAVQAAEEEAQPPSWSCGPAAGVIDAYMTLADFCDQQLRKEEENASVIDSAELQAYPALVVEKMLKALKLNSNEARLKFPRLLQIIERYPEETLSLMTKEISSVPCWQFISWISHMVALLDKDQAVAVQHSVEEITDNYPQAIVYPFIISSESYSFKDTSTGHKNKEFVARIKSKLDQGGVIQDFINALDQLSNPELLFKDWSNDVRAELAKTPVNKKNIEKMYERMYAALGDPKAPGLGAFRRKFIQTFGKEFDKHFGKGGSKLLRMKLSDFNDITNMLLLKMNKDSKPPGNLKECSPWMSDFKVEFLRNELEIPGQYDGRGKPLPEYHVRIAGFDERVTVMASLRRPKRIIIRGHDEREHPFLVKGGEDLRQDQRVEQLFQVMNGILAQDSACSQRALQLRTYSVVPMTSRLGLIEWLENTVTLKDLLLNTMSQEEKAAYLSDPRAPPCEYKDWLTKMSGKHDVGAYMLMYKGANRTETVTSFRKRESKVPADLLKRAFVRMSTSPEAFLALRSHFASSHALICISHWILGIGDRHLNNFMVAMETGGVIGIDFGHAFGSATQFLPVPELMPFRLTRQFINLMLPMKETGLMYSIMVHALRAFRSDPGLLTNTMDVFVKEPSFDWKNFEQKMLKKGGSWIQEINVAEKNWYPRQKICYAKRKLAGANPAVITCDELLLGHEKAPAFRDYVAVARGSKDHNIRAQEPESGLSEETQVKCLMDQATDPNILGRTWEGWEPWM
Assay: Inhibition against DNA-dependent protein kinase receptor at 0.5uM
Listed compounds paired with reported inhibition

LINE_NOTATION	UNIT_LABEL	inhibition
CC(=O)c1ccccc1-c1ccc2oc(N3CCOCC3)cc(=O)c2c1	%	61
N#Cc1ccc(-c2ccc3c(=O)cc(N4CCOCC4)oc3c2)cc1	%	29
O=c1cc(N2CCOCC2)oc2cc(-c3cccc(O)c3)ccc12	%	33
CC(=O)Nc1ccccc1-c1ccc2oc(N3CCOCC3)cc(=O)c2c1	%	60
COC(=O)c1ccccc1-c1ccc2oc(N3CCOCC3)cc(=O)c2c1	%	30
O=c1cc(N2CCOCC2)oc2cc(-c3cccc(CO)c3)ccc12	%	16
